Assay: Plasma concentration in Lewis rat air pouch model of inflammation at 3 mg/kg, po administered through gavage 1 hr before carrageenan injection measured after 3 hrs by LC-MS/MS analysis relative to control
Format: ADME, organism-based
recorded_endpoint: concentration at 3 h

Exam item: Find the recorded concentration at 3 h belonging to O=C(CCN1CCN(C(=O)OCc2cc(Cl)cc(Cl)c2)CC1)c1ccc2[nH]c(=O)oc2c1 and report it.
Marked response: 79 nM

###

Test: Half life in human
Type: ADME, organism-based
Details: in vivo
recorded_endpoint: half-life (h)
One number for each entry, in h.

Exam item: Find the recorded half-life belonging to CCc1nc2c(C)cc(N3CCN(CC(=O)N4CC(O)C4)CC3)cn2c1N(C)c1nc(-c2ccc(F)cc2)c(C#N)s1 and report it.
Marked response: 5

###

Assay: Plasma concentration in Lewis rat air pouch model of inflammation at 100 mg/kg, po administered through gavage 1 hr before carrageenan injection measured after 3 hrs by LC-MS/MS analysis relative to control
Type: ADME, organism-based
recorded_endpoint: concentration at 3 h

Exam item: Find the recorded concentration at 3 h belonging to O=C(CCN1CCN(C(=O)OCc2cc(Cl)cc(Cl)c2)CC1)c1ccc2[nH]c(=O)oc2c1 and report it.
Marked response: 2680 nM

###

Molecular target: Autotaxin (Homo sapiens, UniProt Q13822)
Test: Mixed-type inhibition of human recombinant ATX using FS3 as substrate assessed as enzyme-inhibitor complex incubated for 2 hrs by Michaelis-Menten equation analysis
recorded_endpoint: pKi
Answers are plain numbers, as −log10 of the molar value.

Exam item: Find the recorded pKi belonging to CCCCCCCCCCCCCCc1ccc(CP(=O)(O)O)cc1 and report it.
Marked response: 6.57

###

Target: Autotaxin (Homo sapiens)
Experiment: Inhibition of recombinant ATX in human […] cells using lysophosphatidylcholine as substrate preincubated for 15 mins followed by substrate addition measured after 90 mins by choline release assay
Assay type: cell-based
recorded_endpoint: IC50

Exam item: Find the recorded IC50 belonging to Cc1c(Sc2cccc(C(=O)O)n2)c2ccc(Cl)cc2n1-c1cnn(C)c1 and report it.
Marked response: < 300 nM

###

Test: Oral bioavailability in Lewis rat at 1 to 100 mg/kg administered through gavage measured up to 24 hrs by LC-MS/MS analysis
Type: ADME, organism-based
Settings: in vivo
recorded_endpoint: bioavailability (%)
Answers are plain numbers, in %.

Exam item: Find the recorded bioavailability belonging to O=C(CCN1CCN(C(=O)OCc2cc(Cl)cc(Cl)c2)CC1)c1ccc2[nH]c(=O)oc2c1 and report it.
Marked response: 43

###

Assay: Effective half life in Lewis rat at 1 mg/kg, iv measured up to 24 hrs by LC-MS/MS analysis
Format: ADME, organism-based
Conditions: in vivo, read-out: t1/2eff (converted)
recorded_endpoint: half-life (h)
Answers are plain numbers, in h.

Exam item: Find the recorded half-life belonging to O=C(CCN1CCN(C(=O)OCc2cc(Cl)cc(Cl)c2)CC1)c1ccc2[nH]c(=O)oc2c1 and report it.
Marked response: 1.2

###

Target: Autotaxin (Mus musculus, UniProt Q9R1E6)
Experiment: Inhibition of ATX in mouse plasma assessed as inhibition of LPA production after 2 hrs by LC-MS/MS analysis
Format: cell-free
pIC50: −log10 of the molar value.
recorded_endpoint: pIC50

Exam item: Find the recorded pIC50 belonging to CCc1nc2c(C)cc(N3CCN(CC(=O)N4CC(O)C4)CC3)cn2c1N(C)c1nc(-c2ccc(F)cc2)c(C#N)s1 and report it.
Marked response: ≤ 6.30
